Please respond with reported shrunken log2 fold change for every item in the list.
- System: Escherichia coli TOP10
- TEST SUMMARY: shrunken log2 fold change of peptide-encoding DNA abundance (4.5 h post-induction vs induction); higher = less antimicrobial activity (less host growth inhibition)
- TEST CONTEXT: time post-induction: 4.5 h; library: site-saturation at positions 5, 18, 19, 20

Fill in: shrunken log2 fold change of RRIRSRPPRLPRPRPRPHMPPRP is ___
-0.401

Fill in: shrunken log2 fold change of RRIRQRPPRLPRPRPRPEDGPRP is ___
0.154

Fill in: shrunken log2 fold change of RRIRTRPPRLPRPRPRPQLQPRP is ___
-0.0711

Fill in: shrunken log2 fold change of RRIRVRPPRLPRPRPRPRYFPRP is ___
-0.446

Fill in: shrunken log2 fold change of RRIRYRPPRLPRPRPRPNWCPRP is ___
0.01

Fill in: shrunken log2 fold change of RRIRGRPPRLPRPRPRPQDAPRP is ___
0.832

Fill in: shrunken log2 fold change of RRIRNRPPRLPRPRPRPMSMPRP is ___
-0.0143

Fill in: shrunken log2 fold change of RRIRNRPPRLPRPRPRPRHSPRP is ___
-0.424

Fill in: shrunken log2 fold change of RRIRGRPPRLPRPRPRPMHKPRP is ___
0.866

Fill in: shrunken log2 fold change of RRIRMRPPRLPRPRPRPVDDPRP is ___
-0.0248

Fill in: shrunken log2 fold change of RRIRNRPPRLPRPRPRPVDVPRP is ___
-0.122

Fill in: shrunken log2 fold change of RRIRMRPPRLPRPRPRPTHRPRP is ___
0.929

Fill in: shrunken log2 fold change of RRIRVRPPRLPRPRPRPMESPRP is ___
0.156

Fill in: shrunken log2 fold change of RRIRKRPPRLPRPRPRPTACPRP is ___
0.108

Fill in: shrunken log2 fold change of RRIRARPPRLPRPRPRPKCTPRP is ___
0.316

Fill in: shrunken log2 fold change of RRIRTRPPRLPRPRPRPCMKPRP is ___
-0.332

Fill in: shrunken log2 fold change of RRIRHRPPRLPRPRPRPYQAPRP is ___
-0.00987

Fill in: shrunken log2 fold change of RRIRKRPPRLPRPRPRPTVIPRP is ___
-0.15

Fill in: shrunken log2 fold change of RRIRMRPPRLPRPRPRPMLVPRP is ___
0.2

Fill in: shrunken log2 fold change of RRIRHRPPRLPRPRPRPWHIPRP is ___
-0.864

Fill in: shrunken log2 fold change of RRIRKRPPRLPRPRPRPIHWPRP is ___
0.137

Fill in: shrunken log2 fold change of RRIRYRPPRLPRPRPRPLKWPRP is ___
-0.258

Fill in: shrunken log2 fold change of RRIRSRPPRLPRPRPRPYCFPRP is ___
-0.544

Fill in: shrunken log2 fold change of RRIRCRPPRLPRPRPRPFNVPRP is ___
-0.146

Fill in: shrunken log2 fold change of RRIRDRPPRLPRPRPRPTHMPRP is ___
0.381

Fill in: shrunken log2 fold change of RRIRHRPPRLPRPRPRPRMNPRP is ___
-0.197

Fill in: shrunken log2 fold change of RRIRVRPPRLPRPRPRPVARPRP is ___
0.223

Fill in: shrunken log2 fold change of RRIRQRPPRLPRPRPRPIACPRP is ___
-0.238

Fill in: shrunken log2 fold change of RRIRPRPPRLPRPRPRPPQIPRP is ___
0.138

Fill in: shrunken log2 fold change of RRIRDRPPRLPRPRPRPERYPRP is ___
0.00592

Fill in: shrunken log2 fold change of RRIRVRPPRLPRPRPRPLHCPRP is ___
0.238

Fill in: shrunken log2 fold change of RRIRTRPPRLPRPRPRPGVQPRP is ___
-0.133

----------
- Test system: Escherichia coli TOP10
- TEST SUMMARY: shrunken log2 fold change of peptide-encoding DNA abundance (4.5 h post-induction vs induction); higher = less antimicrobial activity (less host growth inhibition)
- TEST CONTEXT: time post-induction: 4.5 h; library: site-saturation at positions 5, 18, 19, 20
RECORDED ENDPOINT: shrunken log2 fold change
When you answer, write just the number.

Fill in: shrunken log2 fold change of RRIRMRPPRLPRPRPRPNPPPRP is ___
0.311

Fill in: shrunken log2 fold change of RRIRDRPPRLPRPRPRPCAFPRP is ___
0.822

Fill in: shrunken log2 fold change of RRIRNRPPRLPRPRPRPYRRPRP is ___
-0.281

Fill in: shrunken log2 fold change of RRIRKRPPRLPRPRPRPHNAPRP is ___
0.0979

Fill in: shrunken log2 fold change of RRIRKRPPRLPRPRPRPKTAPRP is ___
0.2

Fill in: shrunken log2 fold change of RRIRERPPRLPRPRPRPKIAPRP is ___
-0.147

Fill in: shrunken log2 fold change of RRIRPRPPRLPRPRPRPCLVPRP is ___
-0.179

Fill in: shrunken log2 fold change of RRIRRRPPRLPRPRPRPYHLPRP is ___
-0.307

Fill in: shrunken log2 fold change of RRIRRRPPRLPRPRPRPIWAPRP is ___
0.0342

Fill in: shrunken log2 fold change of RRIRMRPPRLPRPRPRPTINPRP is ___
-0.109

Fill in: shrunken log2 fold change of RRIRSRPPRLPRPRPRPCGDPRP is ___
-0.0559

Fill in: shrunken log2 fold change of RRIRMRPPRLPRPRPRPRTHPRP is ___
0.28

Fill in: shrunken log2 fold change of RRIRDRPPRLPRPRPRPEHTPRP is ___
0.225

Fill in: shrunken log2 fold change of RRIRVRPPRLPRPRPRPCDTPRP is ___
0.0884

Fill in: shrunken log2 fold change of RRIRTRPPRLPRPRPRPNPGPRP is ___
-0.0312

Fill in: shrunken log2 fold change of RRIRVRPPRLPRPRPRPLLGPRP is ___
-0.131

Fill in: shrunken log2 fold change of RRIRVRPPRLPRPRPRPETSPRP is ___
-0.369

Fill in: shrunken log2 fold change of RRIRGRPPRLPRPRPRPSDCPRP is ___
0.105

Fill in: shrunken log2 fold change of RRIRDRPPRLPRPRPRPSNTPRP is ___
-0.75

Fill in: shrunken log2 fold change of RRIRCRPPRLPRPRPRPIPWPRP is ___
-0.146

Fill in: shrunken log2 fold change of RRIRWRPPRLPRPRPRPEEAPRP is ___
0.113

Fill in: shrunken log2 fold change of RRIRRRPPRLPRPRPRPQKAPRP is ___
0.0122

Fill in: shrunken log2 fold change of RRIRKRPPRLPRPRPRPNWDPRP is ___
1.4

Fill in: shrunken log2 fold change of RRIRIRPPRLPRPRPRPEQGPRP is ___
0.0755

Fill in: shrunken log2 fold change of RRIRQRPPRLPRPRPRPAHCPRP is ___
0.0134

Fill in: shrunken log2 fold change of RRIRTRPPRLPRPRPRPFCHPRP is ___
0.0326

Fill in: shrunken log2 fold change of RRIRSRPPRLPRPRPRPCRLPRP is ___
-0.271

Fill in: shrunken log2 fold change of RRIRHRPPRLPRPRPRPKPRPRP is ___
0.177

Fill in: shrunken log2 fold change of RRIRNRPPRLPRPRPRPCKRPRP is ___
-0.0122

Fill in: shrunken log2 fold change of RRIRRRPPRLPRPRPRPKFFPRP is ___
-0.00723

Fill in: shrunken log2 fold change of RRIRRRPPRLPRPRPRPACIPRP is ___
0.542

Fill in: shrunken log2 fold change of RRIRSRPPRLPRPRPRPPFAPRP is ___
1.88

----------
- Tested on: Escherichia coli TOP10;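 also: peptides expressed intracellularly from a pBAD plasmid library in pooled LB shake-flask culture, induced with 0.3% L-arabinose, DNA abundance read by NGS, three biological replicates, DESeq2 with apeglm shrinkage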
- TEST SUMMARY: shrunken log2 fold change of peptide-encoding DNA abundance (4.5 h post-induction vs induction); higher = less antimicrobial activity (less host growth inhibition)
- TEST CONTEXT: time post-induction: 4.5 h; library: site-saturation at positions 5, 18, 19, 20
Satisfied means recorded shrunken log2 fold change is -0.2 or above; Not satisfied means it is below -0.2.

Would you say RRIRPRPPRLPRPRPRPASDPRP shows shrunken log2 fold change at minimum -0.2?
Satisfied

Would you say RRIRLRPPRLPRPRPRPDMVPRP shows shrunken log2 fold change at minimum -0.2?
Satisfied

Would you say RRIRARPPRLPRPRPRPRDGPRP shows shrunken log2 fold change at minimum -0.2?
Satisfied

Would you say RRIRKRPPRLPRPRPRPYYFPRP shows shrunken log2 fold change at minimum -0.2?
Not satisfied

Would you say RRIRFRPPRLPRPRPRPGLMPRP shows shrunken log2 fold change at minimum -0.2?
Satisfied

Would you say RRIRIRPPRLPRPRPRPKGEPRP shows shrunken log2 fold change at minimum -0.2?
Satisfied

Would you say RRIRIRPPRLPRPRPRPSDRPRP shows shrunken log2 fold change at minimum -0.2?
Not satisfied

Would you say RRIRIRPPRLPRPRPRPTFSPRP shows shrunken log2 fold change at minimum -0.2?
Not satisfied
